Reference source for all entries: the NIST ThermoML archive (doi:10.1016/j.fluid.2018.09.024)

METHOD: activity coefficient (dimensionless); of the first substance listed, at infinite dilution; xn = mol fraction of the nth substance listed
ASSAY CONTEXT: 378.15 K; 101.33 kPa; Liquid; Chromatography; x1 = 0
METRIC NAME: activity coefficient

>>> df
                                    molecule  readout_value
 0  CCCCCCCCCC [decane] + CCCCCCCCCCCC[N+](C)(C)CCOc1ccccc1.N#C[N-]C#N           9.75
 1  Cc1ccc(C)cc1 [1,4-dimethylbenzene] + CCCCCCCCCCCC[N+](C)(C)CCOc1ccccc1.N#C[N-]C#N           1.69
 2  C#CCCCCCC [1-octyne] + CCCCCCCCCCCC[N+](C)(C)CCOc1ccccc1.N#C[N-]C#N            2.8
 3  CCCCCCCC [octane] + CCCCCCCCCCCC[N+](C)(C)CCOc1ccccc1.N#C[N-]C#N           7.15
 4  CCOCC [diethyl ether] + CCCCCCCCCCCC[N+](C)(C)CCOc1ccccc1.N#C[N-]C#N           2.44
 5  C1CCCCCCC1 [cyclooctane] + CCCCCCCCCCCC[N+](C)(C)CCOc1ccccc1.N#C[N-]C#N           3.79
 6  CCCO [propan-1-ol] + CCCCCCCCCCCC[N+](C)(C)CCOc1ccccc1.N#C[N-]C#N          0.471
 7  C1CCCCCC1 [cycloheptane] + CCCCCCCCCCCC[N+](C)(C)CCOc1ccccc1.N#C[N-]C#N           3.39
 8  Cc1ccccc1 [toluene] + CCCCCCCCCCCC[N+](C)(C)CCOc1ccccc1.N#C[N-]C#N           1.28
 9  C#CCCCC [1-hexyne] + CCCCCCCCCCCC[N+](C)(C)CCOc1ccccc1.N#C[N-]C#N           2.02
10  COC(C)=O [methyl ethanoate] + CCCCCCCCCCCC[N+](C)(C)CCOc1ccccc1.N#C[N-]C#N           1.17
11  C=C(C)c1ccccc1 [(1-methylethenyl)benzene] + CCCCCCCCCCCC[N+](C)(C)CCOc1ccccc1.N#C[N-]C#N           1.46
12  O [water] + CCCCCCCCCCCC[N+](C)(C)CCOc1ccccc1.N#C[N-]C#N           0.52
13  c1ccsc1 [thiophene] + CCCCCCCCCCCC[N+](C)(C)CCOc1ccccc1.N#C[N-]C#N          0.773
14  CC(C)CC(C)(C)C [2,2,4-trimethylpentane] + CCCCCCCCCCCC[N+](C)(C)CCOc1ccccc1.N#C[N-]C#N           7.47
15  CCCCCC [hexane] + CCCCCCCCCCCC[N+](C)(C)CCOc1ccccc1.N#C[N-]C#N            5.6
16  C=CCCCC [hex-1-ene] + CCCCCCCCCCCC[N+](C)(C)CCOc1ccccc1.N#C[N-]C#N           3.99
17  Cc1ccccc1C [1,2-dimethylbenzene] + CCCCCCCCCCCC[N+](C)(C)CCOc1ccccc1.N#C[N-]C#N           1.43
18  C=COC(C)=O [vinyl acetate] + CCCCCCCCCCCC[N+](C)(C)CCOc1ccccc1.N#C[N-]C#N           1.41
19  CCC(=O)OC [methyl propanoate] + CCCCCCCCCCCC[N+](C)(C)CCOc1ccccc1.N#C[N-]C#N           1.28
20  C=CCCCCC [1-heptene] + CCCCCCCCCCCC[N+](C)(C)CCOc1ccccc1.N#C[N-]C#N           4.59
21  CCOC(C)(C)C [2-ethoxy-2-methylpropane] + CCCCCCCCCCCC[N+](C)(C)CCOc1ccccc1.N#C[N-]C#N           4.03
22  C=CCCCCCC [oct-1-ene] + CCCCCCCCCCCC[N+](C)(C)CCOc1ccccc1.N#C[N-]C#N           5.38
23  CC#N [acetonitrile] + CCCCCCCCCCCC[N+](C)(C)CCOc1ccccc1.N#C[N-]C#N          0.801
24  CCOC(C)=O [ethyl acetate] + CCCCCCCCCCCC[N+](C)(C)CCOc1ccccc1.N#C[N-]C#N           1.37
25  C1CCCCC1 [cyclohexane] + CCCCCCCCCCCC[N+](C)(C)CCOc1ccccc1.N#C[N-]C#N           3.24
26  c1ccncc1 [pyridine] + CCCCCCCCCCCC[N+](C)(C)CCOc1ccccc1.N#C[N-]C#N          0.673
27  CC(C)CO [2-methyl-1-propanol] + CCCCCCCCCCCC[N+](C)(C)CCOc1ccccc1.N#C[N-]C#N          0.494
28  CCc1ccccc1 [ethylbenzene] + CCCCCCCCCCCC[N+](C)(C)CCOc1ccccc1.N#C[N-]C#N           1.64
29  C#CCCCCC [1-heptyne] + CCCCCCCCCCCC[N+](C)(C)CCOc1ccccc1.N#C[N-]C#N            2.4
30  C#CCCC [1-pentyne] + CCCCCCCCCCCC[N+](C)(C)CCOc1ccccc1.N#C[N-]C#N           1.79
31  c1ccccc1 [benzene] + CCCCCCCCCCCC[N+](C)(C)CCOc1ccccc1.N#C[N-]C#N           1.01
